Test system: viral RNA polymerase
TEST_PROTOCOL: Potential inhibitors: Results Screen
Type: biochemical
TEST_CONDITIONS: test concentration not given
# Results Screen Median Screen (% inhibition) per record follows
Field format: number, assumed % inhibition, no unit text.

Consider the worked cases shown below.
Req: Recorded Results Screen Median Screen (% inhibition) of CC1=C[C@H](C/C(C)=C/COc2c3occc3cc3ccc(=O)oc23)OC1=O [AD153413-25_H9] , please.
Resp: 79.1

Req: Recorded Results Screen Median Screen (% inhibition) of O=C(/C=C/c1ccc(O)c2c1C(C(=O)O)C(c1ccc(O)c(O)c1)O2)OC(Cc1ccc(O)c(O)c1)C(=O)O (stereo not drawn) [AD153413-16_E3] , please.
Resp: 77.7

Req: Recorded Results Screen Median Screen (% inhibition) of COc1cc(-c2cc(=O)c3c(O)c(C4OC(CO)C(O)C(OC5OC(CO)C(O)C(O)C5OC5OC(CO)C(O)C(O)C5O)C4OC(=O)/C=C/c4ccc(O)c(O)c4)c(O)cc3o2)ccc1O (stereo not drawn) [AD153413-17_A4] , please.
Resp: 69.6

Req: Recorded Results Screen Median Screen (% inhibition) of COc1ccc(CCC(=O)O)cc1 [AD153413-03_F11] , please.
Resp: 70.6

Req: Recorded Results Screen Median Screen (% inhibition) of O=C1c2ccc(O)cc2O[C@H](c2ccc(O)c(O)c2)[C@H]1O [AD153413-21_A6] , please.
Resp: 68.8

Attention now turns to another entry.
Req: Recorded Results Screen Median Screen (% inhibition) of O=C(CCc1ccc(O)cc1)CC(CCc1ccc(O)cc1)OC1O[C@@H](COC(=O)/C=C/c2ccc(O)cc2)[C@H](O)[C@@H](O)[C@@H]1O (stereo partly drawn) [AD153413-07_H11] , please.
Resp: 70
